- Test system: Escherichia coli
- METHOD NOTES: ≥ marks a high value that may be exact or a test limit, other limits are often not marked, values filed in µg/mL are converted to µM
MIC for assorted molecules
Please give a number only; it is taken to be in µM.

See these solved cases before continuing.
CC(C)C[C@H](NC(=O)[C@H](Cc1ccccc1)NC(=O)[C@@H]1CCCN1C(=O)[C@H](Cc1c[nH]c2ccccc12)NC(=O)[C@H](Cc1c[nH]c2ccccc12)NC(=O)[C@H](Cc1c[nH]c2ccccc12)NC(=O)[C@@H]1CCCN1C(=O)[C@H](Cc1ccccc1)NC(=O)[C@H](CCCCN)NC(=O)[C@H](CCCCN)NC(=O)[C@@H](N)C(C)C)C(=O)N[C@@H](CCCCN)C(=O)N[C@@H](CCCCN)C(N)=O: 11.2
CC[C@H](C)[C@H](N)C(=O)N[C@@H](CC(N)=O)C(=O)N[C@@H](Cc1c[nH]c2ccccc12)C(=O)N[C@@H](CCCCN)C(=O)N[C@@H](CCCCN)C(=O)N[C@H](C(=O)N[C@@H](Cc1ccccc1)C(=O)N[C@@H](CCC(=O)O)C(=O)N[C@@H](CCCCN)C(=O)N[C@H](C(=O)N[C@@H](CCCCN)C(=O)N[C@@H](CC(=O)O)C(=O)N[C@@H](CC(C)C)C(=O)N[C@H](C(N)=O)C(C)C)C(C)C)[C@@H](C)CC: 9
CC[C@H](C)[C@H](NC(=O)[C@@H](NC(=O)[C@H](C)NC(=O)[C@H](Cc1ccccc1)NC(=O)[C@H](CC(C)C)NC(=O)CN)C(C)C)C(=O)N[C@@H](CCCCN)C(=O)N[C@@H](CCCCN)C(=O)N[C@H](C(=O)N[C@@H](C)C(=O)N[C@@H](CO)C(=O)N[C@H](C(=O)N[C@H](C(=O)N[C@@H](CCCCN)C(=O)NCC(=O)N[C@@H](CC(C)C)C(N)=O)[C@@H](C)CC)C(C)C)C(C)C: 30.4

Now for the molecule whose MIC we want.
QUERY: Which value of MIC has been reported for `CC[C@H](C)[C@H](NC(=O)[C@@H]1CCCN1C(=O)[C@H](CCSC)NC(=O)[C@@H](N)Cc1ccccc1)C(=O)N[C@@H](CC(C)C)C(=O)N[C@@H](CO)C(=O)N[C@H]1CSSC[C@@H](C(=O)O)NC(=O)[C@H](CCCN=C(N)N)NC(=O)[C@H](CCCCN)NC(=O)[C@H](Cc2ccccc2)NC(=O)[C@H](CCCN=C(N)N)NC(=O)[C@H](CO)NC1=O` in the records?
RESULT: 2.95

---

This document collects MIC values reported for Staphylococcus aureus ATCC 6538.
Please give a number only; it is taken to be in µM.

QUERY: Give Staphylococcus aureus ATCC 6538 MIC for `CC[C@H](C)[C@H](NC(=O)[C@H](CO)NC(=O)[C@H](CCCCN)NC(=O)[C@@H](NC(=O)CNC(=O)[C@H](CCCCN)NC(=O)[C@H](Cc1c[nH]c2ccccc12)NC(=O)[C@H](CC(C)C)NC(=O)[C@H](CCCCN)NC(=O)CNC(=O)[C@H](CC(C)C)NC(=O)[C@@H](NC(=O)[C@@H](N)CCCCN)[C@@H](C)CC)C(C)C)C(=O)N[C@@H](Cc1ccccc1)C(N)=O`
RESULT: 7.73

QUERY: Give Staphylococcus aureus ATCC 6538 MIC for `CC(C)C[C@H](NC(=O)[C@H](C)NC(=O)[C@H](Cc1ccccc1)NC(=O)[C@H](CCCCN)NC(=O)[C@H](CCCCN)NC(=O)[C@H](CC(C)C)NC(=O)[C@H](C)NC(=O)[C@H](CCCCN)NC(=O)[C@H](C)NC(=O)[C@H](CC(C)C)NC(=O)[C@H](CC(C)C)NC(=O)[C@H](CCCCN)NC(=O)[C@H](C)NC(=O)[C@@H](N)Cc1ccccc1)C(N)=O`
RESULT: 32

---

- Test system: Pseudomonas aeruginosa ATCC 27853
- METHOD NOTES: ≥ marks a high value that may be exact or a test limit, other limits are often not marked, values filed in µg/mL are converted to µM
MEASUREMENT KIND: MIC (µM)
Please give a number only; it is taken to be in µM.

CC[C@H](C)[C@H](NC(=O)CN)C(=O)N[C@@H](CC(C)C)C(=O)N[C@@H](CO)C(=O)N[C@@H](CO)C(=O)N[C@@H](Cc1c[nH]c2ccccc12)C(=O)N[C@@H](CC(C)C)C(=O)N[C@@H](CCCCN)C(=O)N[C@@H](CCCCN)C(=O)N[C@@H](CC(C)C)C(=O)N[C@@H](CCCCN)C(=O)N[C@@H](CCCCN)C(=O)N[C@H](C(=O)N[C@H](C(=O)N[C@@H](C)C(=O)N[C@@H](CCCCN)C(N)=O)[C@@H](C)CC)[C@@H](C)CC [GILSSWLKKLKKIIAK]: 4
CSCC[C@H](NC(=O)[C@@H](N)CCCCN)C(=O)N[C@@H](CC(=O)O)C(=O)N[C@@H](CO)C(=O)N[C@@H](CCCN=C(N)N)C(=O)N[C@@H](Cc1c[nH]c2ccccc12)C(=O)N[C@@H](CCCN=C(N)N)C(=O)N[C@@H](Cc1c[nH]c2ccccc12)C(=O)N[C@@H](CCCCN)C(=O)N[C@@H](CO)C(=O)N[C@@H](CO)C(=O)N[C@@H](CCCCN)C(=O)N[C@@H](CCCCN)C(=O)O [KMDSRWRWKSSKK]: 16.4

Now for the molecule whose MIC we want.
QUERY: Which value of MIC has been reported for CC[C@H](C)[C@H](N)C(=O)N[C@@H](Cc1cnc[nH]1)C(=O)N[C@@H](CCCCN)C(=O)N[C@@H](Cc1ccccc1)C(=O)N[C@@H](Cc1c[nH]c2ccccc12)C(=O)N[C@@H](CCCN=C(N)N)C(=O)N[C@@H](CCCN=C(N)N)C(=O)N[C@@H](Cc1c[nH]c2ccccc12)C(=O)N[C@@H](Cc1ccccc1)C(=O)N[C@@H](CCCCN)C(=O)N[C@@H](Cc1cnc[nH]1)C(=O)N[C@H](C(N)=O)[C@@H](C)CC [IHKFWRRWFKHI] in the records?
RESULT: 16

---

This document collects MIC values reported for Staphylococcus aureus ATCC 6538.
Please give a number only; it is taken to be in µM.

CC[C@H](C)[C@H](NC(=O)CN)C(=O)N[C@@H](Cc1cnc[nH]1)C(=O)N[C@@H](CCCN=C(N)N)C(=O)N[C@H](C(=O)N[C@@H](CC(C)C)C(=O)N[C@@H](CCCCN)C(=O)N[C@@H](Cc1ccc(O)cc1)C(=O)NCC(=O)N[C@@H](CCCCN)C(=O)N1CCC[C@H]1C(=O)N[C@@H](CO)C(N)=O)[C@@H](C)CC: 10

Now for the molecule whose MIC we want.
QUERY: Which value of MIC has been reported for `CC(C)C[C@H](NC(=O)[C@H](CCCCN)NC(=O)[C@H](CC(C)C)NC(=O)[C@H](CCCCN)NC(=O)[C@H](C)NC(=O)[C@H](CC(C)C)NC(=O)[C@H](CCCCN)NC(=O)[C@H](C)NC(=O)[C@H](CC(C)C)NC(=O)[C@H](CC(C)C)NC(=O)[C@H](CCCCN)NC(=O)[C@H](C)NC(=O)[C@@H](N)Cc1ccccc1)C(N)=O` in the records?
RESULT: 3.43

---

This document collects MIC values reported for Escherichia coli.
Please give a number only; it is taken to be in µM.

See these solved cases before continuing.
CC[C@H](C)[C@H](NC(=O)CN)C(=O)NCC(=O)N[C@@H](C)C(=O)N[C@H](C(=O)N[C@@H](CC(C)C)C(=O)N[C@@H](CCCCN)C(=O)N[C@H](C(=O)N[C@@H](CC(C)C)C(=O)N[C@@H](C)C(=O)N[C@@H](CC(C)C)C(=O)N[C@H](C(=O)N[C@@H](CO)C(=O)N[C@@H](Cc1c[nH]c2ccccc12)C(=O)N[C@H](C(=O)N[C@@H](CCCCN)C(=O)N[C@@H](CCCN=C(N)N)C(=O)N[C@@H](CCCCN)C(=O)N[C@@H](CCCN=C(N)N)C(N)=O)[C@@H](C)CC)[C@@H](C)CC)C(C)C)C(C)C [GIGAVLKVLALISWIKRKR]: 11.2
CC[C@H](C)[C@H](NC(=O)[C@H](C)NC(=O)CNC(=O)[C@H](CCCCN)NC(=O)[C@@H](NC(=O)[C@H](CCCCN)NC(=O)[C@@H](NC(=O)[C@H](C)NC(=O)CNC(=O)[C@H](CCCCN)NC(=O)[C@H](Cc1c[nH]c2ccccc12)NC(=O)[C@H](CCCCN)NC(=O)[C@@H](NC(=O)[C@H](C)NC(=O)CNC(=O)[C@H](CCCCN)NC(=O)[C@@H](NC(=O)[C@@H](N)CCCCN)[C@@H](C)CC)[C@@H](C)CC)[C@@H](C)CC)[C@@H](C)CC)C(N)=O [KIKGAIKWKGAIKIKGAI]: 4.16
CC(C)C[C@H](NC(=O)[C@H](C)NC(=O)CNC(=O)[C@H](CC(C)C)NC(=O)[C@@H](N)Cc1ccccc1)C(=O)N[C@@H](Cc1ccccc1)C(=O)N[C@@H](CCCCN)C(=O)N[C@@H](Cc1ccccc1)C(=O)N[C@@H](C)C(=O)N[C@@H](CO)C(=O)N[C@@H](CCCCN)C(=O)O [FLGALFKFASK]: 81.4

Now for the compound whose MIC we want.
QUERY: Give Escherichia coli MIC for CC[C@H](C)[C@H](NC(=O)[C@@H](N)CCCCN)C(=O)N[C@@H](CCCN=C(N)N)C(=O)N[C@H](C(=O)N[C@@H](CCCN=C(N)N)C(=O)N[C@@H](CC(C)C)C(=O)N[C@@H](CO)C(=O)N[C@@H](C)C(=O)O)C(C)C [KIRVRLSA]
RESULT: 136
